Assign HC10 to each entry below.
System: Erythrocyte
Assay Overview: Hemolytic activity in mouse RBC
Format: toxicity, cell-based
Square brackets hold non-standard residues; d marks the D form. Peptide text beside a SMILES is read from it. NCyclohexylmethylGly = O=C(O)CNCC1CCCCC1; Nphe = O=C(O)CNCc1ccccc1

{"columns": ["Molecule", "Tested On", "Assay Value"],
 "data": [
  ["CC[C@H](C)[C@H](NC(=O)[C@H](CCCNC(=N)N)NC(=O)[C@H](CCCCN)NC(=O)[C@H](CC(C)C)NC(=O)[C@H](CC(C)C)NC(=O)CNCC1CCCCC1)C(=O)N[C@@H](CCCCN)C(=O)N[C@H](C(=O)N[C@@H](CC(C)C)C(=O)N[C@@H](CC(C)C)C(N)=O)[C@@H](C)O (H-[NCyclohexylmethylGly]LLKRIKTLL-NH2)", "Erythrocyte", "> 50 µM"]
]}

Sample CC[C@H](C)[C@H](NC(=O)[C@H](CCCNC(=N)N)NC(=O)[C@H](CCCCN)NC(=O)[C@H](CC(C)C)NC(=O)[C@H](CC(C)C)NC(=O)CNCc1ccccc1)C(=O)N[C@@H](CCCCN)C(=O)N[C@H](C(=O)N[C@@H](CC(C)C)C(=O)N[C@@H](CC(C)C)C(N)=O)[C@@H](C)O (H-[Nphe]LLKRIKTLL-NH2) — what was its HC10? > 50 µM

###

Tested on: Staphylococcus aureus
Assay Overview: Antibacterial activity against methicillin-resistant Staphylococcus aureus ATCC 33591 assessed as reduction in bacterial growth incubated for 18 hrs by agar dilution method
Type: functional
Square brackets hold non-standard residues; d marks the D form. Peptide text beside a SMILES is read from it. 2Nal = N[C@@H](Cc1ccc2ccccc2c1)C(=O)O; hIle = CC[C@H](C)C[C@H](N)C(=O)O
Reported Endpoint: MIC (µM)
Give bare numbers, in µM.

{"columns": ["Compound", "Assay Value"],
 "data": [
  ["CC[C@H](C)[C@H](NC(=O)[C@H](Cc1c[nH]c2ccccc12)NC(=O)[C@H](CCCCN)NC(=O)[C@H](CC(C)C)NC(=O)[C@H](CC(C)C)NC(=O)CN)C(=O)N[C@@H](CCCCN)C(=O)N[C@@H](CCCCN)C(=O)N[C@@H](CC(C)C)C(=O)N[C@@H](CC(C)C)C(N)=O (H-GLLKWIKKLL-NH2)", 2.5]
]}

Sample CC[C@H](C)C[C@H](NC(=O)[C@H](CCCNC(=N)N)NC(=O)[C@H](CCCCN)NC(=O)[C@H](CC(C)C)NC(=O)[C@H](CC(C)C)NC(=O)CN)C(=O)N[C@@H](CCCCN)C(=O)N[C@H](C(=O)N[C@@H](CC(C)C)C(=O)N[C@@H](Cc1ccc2ccccc2c1)C(N)=O)[C@@H](C)O (H-GLLKR[hIle]KTL[2Nal]-NH2) — what was its MIC? 28.4

###

Assign HC10 to each entry below.
System: Erythrocyte
Assay Overview: Hemolytic activity in erythrocytes (unknown origin)
Format: toxicity, cell-based

Working through the 4 compounds below one at a time, give HC10 for each.
1. CC[C@@H](C)[C@@H](NC(=O)[C@H](CCCCN)NC(=O)[C@H](CCCCN)NC(=O)[C@H](CC(C)C)NC(=O)[C@H](CC(C)C)NC(=O)CN)C(=O)N[C@@H](CCCCN)C(=O)N[C@H](C(=O)N[C@@H](CC(C)C)C(=O)N[C@@H](CC(C)C)C(N)=O)[C@@H](C)O
2. CC[C@@H](C)[C@@H](NC(=O)[C@H](CCCNC(=N)N)NC(=O)[C@H](CCCCN)NC(=O)[C@H](CC(C)C)NC(=O)[C@H](CC1CCCCC1)NC(=O)CN)C(=O)N[C@@H](CCCCN)C(=O)N[C@H](C(=O)N[C@@H](CC(C)C)C(=O)N[C@@H](CC1CCCCC1)C(N)=O)[C@@H](C)O
3. CC(C)C[C@H](NC(=O)[C@H](CC(C)C)NC(=O)[C@H](CCCCN)NC(=O)[C@H](CCCCN)NC(=O)[C@@H](Cc1ccc2ccccc2c1)NC(=O)[C@H](CCCNC(=N)N)NC(=O)[C@H](CCCCN)NC(=O)[C@H](CC(C)C)NC(=O)[C@H](CC1CCCCC1)NC(=O)CN)C(=O)O
4. CC[C@@H](C)[C@@H](NC(=O)[C@H](CCCCN)NC(=O)[C@H](CCCCN)NC(=O)[C@H](CC(C)C)NC(=O)[C@H](CC(C)C)NC(=O)CN)C(=O)N[C@@H](CCCCN)C(=O)N[C@@H](CCCCN)C(=O)N[C@@H](CC(C)C)C(=O)N[C@@H](CC(C)C)C(N)=O

1: 7209 µM; 2: 225.6 µM; 3: 27 µM; 4: 1962.4 µM

Sample `CC(C)C[C@H](NC(=O)CN)C(=O)N[C@@H](CC(C)C)C(=O)N[C@@H](CCCCN)C(=O)N[C@@H](CCCNC(=N)N)C(=O)N[C@H](Cc1ccc2ccccc2c1)C(=O)N[C@@H](CCCCN)C(=O)N[C@H](C(=O)N[C@@H](CC(C)C)C(=O)N[C@@H](CC1CCCCC1)C(N)=O)[C@@H](C)O` — what was its HC10? 74.3 µM
